METHOD NOTES: Cytotoxicity against mouse RAW264.7 cells at 50 uM after 48 hrs by MTT assay
Type: cell-based
CONDITION DETAILS: read-out: INH
Bucketed by reported cytotoxicity at 48 h, 50 µM, buckets being low (below 20%), intermediate (20% to below 40%), high (40% or more)

INSERT INTO assay_data (item_smiles, qualitative_label) VALUES
  ('NC(=O)c1c(NC(=O)c2ccc(OCc3ccccc3)cc2)sc2c1CCN(C(=O)c1ccccc1)C2', 'low'),
  ('NC(=O)c1c(NC(=O)c2ccc(Cl)cc2)sc2c1CCN(C(=O)c1ccccc1)C2', 'high'),
  ('N=C1S/C(=C\c2ccc(OCc3ccccc3)cc2)C(=O)N1c1ccc(Cl)cc1', 'low'),
  ('NC(=O)c1c(NC(=O)c2ccc(Oc3ccccc3)cc2)sc2c1CCN(C(=O)c1ccccc1)C2', 'low'),
  ('NC(=O)c1c(NC(=O)c2ccc(Cl)cc2)sc2c1CCN(Cc1ccccc1)C2', 'low'),
  ('CN1CCc2c(sc(NC(=O)c3ccc(OCc4ccccc4)cc3)c2C(N)=O)C1', 'intermediate'),
  ('Cc1ccc(C)c(N2C(=N)S/C(=C\c3ccc(OCc4ccccc4)cc3)C2=O)c1', 'high'),
  ('CC(C)(C)OC(=O)N1CCc2c(sc(NC(=O)c3ccc(Oc4ccccc4)cc3)c2C(N)=O)C1', 'intermediate'),
  ('N=C1S/C(=C\c2ccc(OCc3ccccc3)cc2)C(=O)N1c1cccc([N+](=O)[O-])c1', 'high'),
  ('NC(=O)c1c(NC(=O)c2ccc(OCc3ccccc3)cc2)sc2c1CCN(Cc1ccccc1)C2', 'intermediate'),
  ('N=C1S/C(=C\c2ccc(OCc3ccccc3)cc2)C(=O)N1c1ccc(F)cc1', 'low'),
  ('CN1CCc2c(sc(NC(=O)c3ccc(Cl)cc3)c2C(N)=O)C1', 'intermediate'),
  ('NC(=O)c1c(NC(=O)c2ccc(Oc3ccccc3)cc2)sc2c1CCN(Cc1ccccc1)C2', 'intermediate'),
  ('Cc1cccc(C)c1N1C(=N)S/C(=C\c2ccc(OCc3ccccc3)cc2)C1=O', 'intermediate'),
  ('N=C1S/C(=C\c2ccc(OCc3ccccc3)cc2)C(=O)N1c1ncccn1', 'intermediate'),
  ('N=C1S/C(=C\c2ccc(OCc3ccccc3)cc2)C(=O)N1c1ccccc1', 'intermediate'),
  ('Cc1ccc(N2C(=N)S/C(=C\c3ccc(OCc4ccccc4)cc3)C2=O)c(C)c1', 'intermediate'),
  ('CC(=O)N1CCc2c(sc(NC(=O)c3ccc(Cl)cc3)c2C(N)=O)C1', 'intermediate'),
  ('CC(C)(C)OC(=O)N1CCc2c(sc(NC(=O)c3ccc(OCc4ccccc4)cc3)c2C(N)=O)C1', 'high'),
  ('N=C1S/C(=C\c2ccc(OCc3ccccc3)cc2)C(=O)N1c1ccccc1[N+](=O)[O-]', 'intermediate'),
  ('CC(=O)N1CCc2c(sc(NC(=O)c3ccc(Oc4ccccc4)cc3)c2C(N)=O)C1', 'intermediate');

* * *

METHOD NOTES: Inhibition of Mycobacterium tuberculosis AlaDH using L-alanine as substrate after 20 mins by spectrophotometry
CONDITION DETAILS: read-out: IC50
Returns: string. Value is YES if measured IC50 is below 2000 nM, and NO if it is greater than or equal to it.

INSERT INTO assay_data (item_smiles, qualitative_label) VALUES
  ('NC(=O)c1c(NC(=O)c2ccc(Cl)cc2)sc2c1CCN(C(=O)c1ccccc1)C2', 'YES'),
  ('N=C1S/C(=C\c2ccc(OCc3ccccc3)cc2)C(=O)N1c1ccccn1', 'NO'),
  ('NC(=O)c1c(NC(=O)c2ccc(Oc3ccccc3)cc2)sc2c1CCN(Cc1ccccc1)C2', 'YES'),
  ('NC(=O)c1c(NC(=O)c2ccc(Oc3ccccc3)cc2)sc2c1CCN(C(=O)c1ccccc1)C2', 'YES'),
  ('N=C1S/C(=C\c2ccc(OCc3ccccc3)cc2)C(=O)N1c1ccc([N+](=O)[O-])cc1', 'NO'),
  ('N=C1S/C(=C\c2ccc(OCc3ccccc3)cc2)C(=O)N1c1ccc(Cl)cc1Cl', 'NO'),
  ('CC(=O)N1CCc2c(sc(NC(=O)c3ccc(OCc4ccccc4)cc3)c2C(N)=O)C1', 'YES'),
  ('N=C1S/C(=C\c2ccc(OCc3ccccc3)cc2)C(=O)N1c1ccc(Br)cc1', 'NO');
